# subject_of_test: human recombinant BTK (Homo sapiens (Human), UniProt Q06187)
# Sequence (Q06187 whole entry): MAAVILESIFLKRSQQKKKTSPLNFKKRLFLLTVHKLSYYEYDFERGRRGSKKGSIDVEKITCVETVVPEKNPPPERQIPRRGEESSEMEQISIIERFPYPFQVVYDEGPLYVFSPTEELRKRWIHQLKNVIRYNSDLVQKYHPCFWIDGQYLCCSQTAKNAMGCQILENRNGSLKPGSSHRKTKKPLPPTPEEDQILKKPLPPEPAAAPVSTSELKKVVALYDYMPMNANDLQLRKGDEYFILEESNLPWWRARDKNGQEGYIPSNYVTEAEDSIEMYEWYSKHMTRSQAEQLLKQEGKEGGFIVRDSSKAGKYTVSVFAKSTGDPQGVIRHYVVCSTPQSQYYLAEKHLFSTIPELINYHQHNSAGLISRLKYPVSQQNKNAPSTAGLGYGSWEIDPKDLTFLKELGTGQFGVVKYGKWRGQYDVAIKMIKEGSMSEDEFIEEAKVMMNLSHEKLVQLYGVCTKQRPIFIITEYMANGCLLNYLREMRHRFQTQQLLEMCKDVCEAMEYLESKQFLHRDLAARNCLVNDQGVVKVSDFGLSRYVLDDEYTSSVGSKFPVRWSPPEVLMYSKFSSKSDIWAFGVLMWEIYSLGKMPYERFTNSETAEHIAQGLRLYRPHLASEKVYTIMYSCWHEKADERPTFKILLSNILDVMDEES
# assay_name: BTK Enzymatic Activity Assay (Caliper-based kinase assay)
# Assay type: biochemical
# experimental_setup: human recombinant BTK (0.5 nM), ATP (16 μM), peptide substrate (1 μM), room temperature for 3 h
Parameter: IC50. Scope: all listed entries.

compound: CC(C)(C=C(C#N)C(=O)N1CCC[C@H]1Cn1nc(-c2ccc(Oc3ccccc3)cc2F)c2c(N)nccc21)N1CCN(C2COC2)CC1 [Compound 13]
IC50: 7.4 nM

compound: CN1CCN(C(C)(C)C=C(C#N)C(=O)N2CCC[C@H]2Cn2nc(-c3ccc(C(=O)Nc4ccccn4)cc3)c3c(N)nccc32)CC1 [Compound 20]
IC50: 19.1 nM

compound: CN1CCN(C(C)(C)C=C(C#N)C(=O)N2CCC[C@H]2Cn2nc(-c3ccc(Oc4ccccc4)cc3F)c3c(N)nccc32)CC1=O [Compound 32]
IC50: 8.9 nM

compound: CN1CCN(C(C)(C)C=C(C#N)C(=O)N2CCC[C@@H](c3nc(-c4ccc(Oc5ccccc5)cc4)c4c(N)nccn34)C2)CC1=O [Compound 52]
IC50: 1.8 nM

compound: CC(=O)N1CCN(C(C)(C)C=C(C#N)C(=O)N2CCC[C@@H](c3nc(-c4ccc(Oc5ccccc5)cc4)c4c(N)nccn34)C2)CC1 [Compound 57]
IC50: 1.1 nM

compound: CN(C1COC1)C(C)(C)C=C(C#N)C(=O)N1CCC[C@H]1Cc1nc(-c2ccc(Oc3ccccc3)cc2F)c2c(N)nccn12 [Compound 18]
IC50: 4.3 nM

compound: CC(C)(C=C(C#N)C(=O)N1CCC[C@@H](n2nc(-c3ccc(Oc4ccccc4)cc3F)c3c(N)nccc32)C1)N1CCNC(=O)C1 [Compound 24]
IC50: 1.7 nM

compound: CC1(C=C(C#N)C(=O)N2CCC[C@@H](n3nc(-c4ccc(Oc5ccccc5)cc4F)c4c(N)nccc43)C2)CCOCC1 [Compound 48]
IC50: 3.1 nM

compound: CC1(C=C(C#N)C(=O)N2CCC[C@@H](n3nc(-c4ccc(Oc5ccccc5)cc4)c4c(N)nccc43)C2)CCOCC1 [Compound 43]
IC50: 2 nM

compound: CC(C)(C=C(C#N)C(=O)N1CCC[C@H]1Cn1nc(-c2ccc(Oc3ccccc3)cc2F)c2c(N)nccc21)N1CCOCC1 [Compound 22]
IC50: 2.5 nM

compound: CC(C)(/C=C(\C#N)C(=O)N1CCC[C@@H](n2nc(-c3ccc(Oc4ccccc4)cc3F)c3c(N)nccc32)C1)N1CCOCC1 [Compound 11]
IC50: 2 nM

compound: CC(=O)N1CCN(C(C)(C)C=C(C#N)C(=O)N2CCC[C@@H](c3nc(-c4ccc(Oc5ccccc5)cc4F)c4c(N)nccn34)C2)CC1 [Compound 59]
IC50: 1.4 nM

compound: CC(C)(C=C(C#N)C(=O)N1CCC[C@@H](c2nc(-c3ccc(Oc4ccccc4)cc3)c3c(N)nccn23)C1)N1CCN2C(=O)CC[C@H]2C1 [Compound 64]
IC50: 0.8 nM

compound: CC1(C=C(C#N)C(=O)N2CCC[C@@H](n3nc(-c4ccc(Oc5ccccc5)cc4)c4c(N)nccc43)C2)CCN(C2COC2)CC1 [Compound 42]
IC50: 2.6 nM

compound: CC(C)(C=C(C#N)C(=O)N1CCC[C@@H](n2nc(-c3ccc(Oc4c(F)cccc4F)cc3)c3c(N)nccc32)C1)N1CCN(C2COC2)CC1 [Compound 28]
IC50: 0.9 nM

compound: CCN1CCN(C(C)(C)C=C(C#N)C(=O)N2CCC[C@@H](n3nc(-c4ccc(Oc5ccccc5)cc4F)c4c(N)nccc43)C2)CC1=O [Compound 40]
IC50: 2.4 nM

compound: CC(C)(C=C(C#N)C(=O)N1CCC[C@@H](n2nc(-c3ccc(C(=O)Nc4cc(F)ccn4)cc3)c3c(N)nccc32)C1)N1CCN(C2COC2)CC1 [Compound 50]
IC50: 4.2 nM

compound: CC(C)(C)C=C(C#N)C(=O)N1CCC[C@@H](n2nc(-c3ccc(Oc4ccccc4)cc3F)c3c(N)nccc32)C1 [Compound 9]
IC50: 8.6 nM

compound: CN1CCN(C(C)(C)/C=C(\C#N)C(=O)N2CCC[C@@H](n3nc(-c4ccc(Oc5ccccc5)cc4F)c4c(N)nccc43)C2)CC1 [Compound 10]
IC50: 1.9 nM

compound: CC(C)(C=C(C#N)C(=O)N1CCC[C@@H](c2nc(-c3ccc(Oc4ccccc4)cc3F)c3c(N)nccn23)C1)N1CCN2C(=O)CC[C@H]2C1 [Compound 62]
IC50: 2.2 nM

compound: CC(C)(C=C(C#N)C(=O)N1CCC[C@@H](n2nc(-c3ccc(Oc4cccc(F)c4F)cc3)c3c(N)nccc32)C1)N1CCN(C2COC2)CC1 [Compound 29]
IC50: 0.8 nM

compound: CC(C)(/C=C(\C#N)C(=O)N1CCC[C@H]1Cc1nc(-c2ccc(Oc3ccccc3)cc2F)c2c(N)nccn12)N1CCOCC1 [Compound 17]
IC50: 2.9 nM

compound: CC(C)(C)C=C(C#N)C(=O)N1CCC[C@H]1Cc1nc(-c2ccc(Oc3ccccc3)cc2F)c2c(N)nccn12 [Compound 16]
IC50: 1.7 nM

compound: COC(=O)N1CCN(C(C)(C)C=C(C#N)C(=O)N2CCC[C@@H](c3nc(-c4ccc(Oc5ccccc5)cc4F)c4c(N)nccn34)C2)CC1 [Compound 58]
IC50: 2.8 nM

compound: CN1CCN(C(C)(C)C=C(C#N)C(=O)N2CCC[C@@H](n3nc(-c4ccc(C(=O)Nc5ccccn5)cc4)c4c(N)nccc43)C2)CC1 [Compound 45]
IC50: 4.6 nM
